Just for reference, patent US11008314B2 is where these values come from.

Target: BTK (Homo sapiens (Human), UniProt Q06187)
Sequence (Q06187 whole entry, species assumed): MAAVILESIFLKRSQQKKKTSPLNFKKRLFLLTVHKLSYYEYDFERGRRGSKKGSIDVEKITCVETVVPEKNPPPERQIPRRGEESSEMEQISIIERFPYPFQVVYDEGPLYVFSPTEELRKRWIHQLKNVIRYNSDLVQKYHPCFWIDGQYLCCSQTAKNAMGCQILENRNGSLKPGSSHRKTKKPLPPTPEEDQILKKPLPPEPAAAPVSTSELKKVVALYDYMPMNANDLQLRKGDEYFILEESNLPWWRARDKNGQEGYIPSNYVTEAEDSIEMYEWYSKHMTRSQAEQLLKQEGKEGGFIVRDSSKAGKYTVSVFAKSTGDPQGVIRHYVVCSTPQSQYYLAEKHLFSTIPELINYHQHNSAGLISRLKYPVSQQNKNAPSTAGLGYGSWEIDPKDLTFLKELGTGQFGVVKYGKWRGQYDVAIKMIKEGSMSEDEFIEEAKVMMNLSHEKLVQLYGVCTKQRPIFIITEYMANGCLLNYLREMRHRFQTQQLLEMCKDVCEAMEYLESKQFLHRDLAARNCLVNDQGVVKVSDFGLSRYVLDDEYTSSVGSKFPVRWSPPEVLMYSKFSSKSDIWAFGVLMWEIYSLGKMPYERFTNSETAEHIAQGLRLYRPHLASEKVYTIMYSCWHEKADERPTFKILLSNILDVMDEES
Experiment: IC50 against BTK
Type: biochemical
Entries and their IC50

Some compounds with recorded IC50:
{"compound": "C=CC(=O)N1CCCN(C(=O)c2cc(Sc3cnc(NC(=O)C4CC4)s3)cc(C)c2C)C[C@H]1C [Compound 63]", "IC50": "≥ 10000 nM"}
{"compound": "C=CC(=O)N1CCN(C(=O)c2cc(Sc3cnc(NC(=O)C4CC4)s3)c(C)cc2OC)[C@H](C)C1 [Compound 20]", "IC50": "100 to 1000 nM"}

API: the following record is the query input.
Identify the measured IC50 of C=C(C)C(=O)N1CCCN(C(=O)c2cc(Sc3cnc(NC(=O)c4cccc(CN(C)C)c4)s3)c(C)cc2OC)CC1 [Compound 39] for BTK (Homo sapiens (Human), UniProt Q06187).
≥ 10000 nM
